Each recorded value in this set is attributed to patent US20250339426A1.

Tested on: patient-derived Champions' human AML models
assaySummary: Ex vivo AML PDX cell viability (Cell Titer Glo), 30 models
Format: cell-based
conditionSet: Homo sapiens, 5 PDX models, resistant responders
pEC50: −log10 of the molar value.
readout: pEC50

Inquiry: Entry `CNC(=O)c1ncn2cc(-c3c(F)ccc(NS(=O)(=O)c4cc(Cl)cnc4OC)c3F)ncc12` : reported pEC50 = ?
Reply text: 5.65 to 6.03

----------
Tested on: CTG-2238
assaySummary: Ex vivo AML PDX cell viability (Cell Titer Glo)
Format: cell-based
conditionSet: Homo sapiens, 144 h; PDX model CTG-2238, 6 days; read-out: HC-7366 EC50
readout: EC50

Inquiry: Which measured EC50 value corresponds to CNC(=O)c1ncn2cc(-c3c(F)ccc(NS(=O)(=O)c4cc(Cl)cnc4OC)c3F)ncc12 [HC-7366] ?
Reply text: 123 µM

----------
System: CTG-2229
assaySummary: Ex vivo AML PDX cell viability (Cell Titer Glo)
Format: cell-based
conditionSet: Homo sapiens, 144 h; PDX model CTG-2229, 6 days; read-out: HC-7366 EC50
readout: EC50 (µM)
Give your result in µM as a bare value.

Inquiry: Could you tell me which EC50 is on file for CNC(=O)c1ncn2cc(-c3c(F)ccc(NS(=O)(=O)c4cc(Cl)cnc4OC)c3F)ncc12 [HC-7366] ?
Reply text: 34

----------
Tested on: CTG-3439
assaySummary: Ex vivo AML PDX cell viability (Cell Titer Glo)
Assay type: cell-based
conditionSet: Homo sapiens, 144 h; PDX model CTG-3439, 6 days; read-out: HC-7366 EC50
Method: . Cell viability was assayed after treating PDX models with DMSO or HC-7366 for 6 days using a plate-based luminescence assay (Cell Titer Glo). […] EC50 values were calculated to the bottom of the curve and are provided below. Viability curves are provided for the models CTG-2229 (FIG. 81), CTG-3680 (FIG. 82), CTG-3667 (FIG. 83), CTG-2456 (FIG. 84), CTG-2457 (FIG. 85), and CTG-2454 (FIG. 86).
readout: EC50

Inquiry: GET /values?readout=EC50&item= `CNC(=O)c1ncn2cc(-c3c(F)ccc(NS(=O)(=O)c4cc(Cl)cnc4OC)c3F)ncc12`
Reply text: 349 µM

----------
Test system: patient-derived Champions' human AML models
assaySummary: Ex vivo AML PDX cell viability (Cell Titer Glo), 30 models
Assay type: cell-based
conditionSet: Homo sapiens, 12 PDX models, moderate responders
readout: EC50

Inquiry: Lab request: please report EC50 under test system patient-derived Champions' human AML models for CNC(=O)c1ncn2cc(-c3c(F)ccc(NS(=O)(=O)c4cc(Cl)cnc4OC)c3F)ncc12 [HC-7366]
Reply text: 100 to 350 nM

----------
Tested on: CTG-2700
assaySummary: Ex vivo AML PDX cell viability (Cell Titer Glo)
Type: cell-based
conditionSet: Homo sapiens, 144 h; PDX model CTG-2700, 6 days; read-out: HC-7366 EC50
Description: . Cell viability was assayed after treating PDX models with DMSO or HC-7366 for 6 days using a plate-based luminescence assay (Cell Titer Glo). […] EC50 values were calculated to the bottom of the curve and are provided below. Viability curves are provided for the models CTG-2229 (FIG. 81), CTG-3680 (FIG. 82), CTG-3667 (FIG. 83), CTG-2456 (FIG. 84), CTG-2457 (FIG. 85), and CTG-2454 (FIG. 86).
readout: EC50 (µM)
The reply should contain only the number, in µM.

Inquiry: Need EC50 of `CNC(=O)c1ncn2cc(-c3c(F)ccc(NS(=O)(=O)c4cc(Cl)cnc4OC)c3F)ncc12` , thanks.
Reply text: 333
